// provenance: ChEMBL document CHEMBL1129479

Target Or Test System: Aromatase (Homo sapiens)
pIC50: −log10 of the molar value.
The following compounds are shown together with reported pIC50 values.

CSSCC[C@]12CCC(=O)C=C1CCC1C2=CC[C@]2(C)C(=O)CCC12 (stereo partly specified)
< 6.00
C[C@]12CC=C3C(CCC4=CC(=O)CC[C@@]43CC[Se]c3ccccc3)C1CCC2=O (stereo partly specified)
< 6.00
C[C@]12CC=C3C(CCC4=CC(=O)CC[C@@]43CCSC3CC3)C1CCC2=O (stereo partly specified)
< 6.00

q: Can you look up pIC50 on Aromatase (Homo sapiens) for C[C@]12CC=C3C(CCC4=CC(=O)CC[C@@]43CCSSc3ccc([N+](=O)[O-])cc3[N+](=O)[O-])C1CCC2=O (stereo partly specified) ?
a: < 6.00

q: Can you look up pIC50 on Aromatase (Homo sapiens) for C[C@]12CC=C3C(CCC4=CC(=O)CC[C@@]43CCSC(F)F)C1CCC2=O (stereo partly specified) ?
a: < 6.00

q: Can you look up pIC50 on Aromatase (Homo sapiens) for CCSC(C[C@]12CCC(=O)C=C1CCC1C2=CC[C@]2(C)C(=O)CCC12)SCC (stereo partly specified) ?
a: < 6.00

q: Can you look up pIC50 on Aromatase (Homo sapiens) for CC(=O)SCC[C@]12CCC(=O)C=C1CCC1C2=CC[C@]2(C)C(=O)CCC12 (stereo partly specified) ?
a: < 5.00

q: Can you look up pIC50 on Aromatase (Homo sapiens) for CSCCCC12CCC(=O)C=C1CCC1C2=CC[C@]2(C)C(=O)CCC12 (single isomer, unassigned) ?
a: < 5.00

q: Can you look up pIC50 on Aromatase (Homo sapiens) for C[C@]12CC=C3C(CCC4=CC(=O)CC[C@@]43CCSC#N)C1CCC2=O (stereo partly specified) ?
a: < 6.00

q: Can you look up pIC50 on Aromatase (Homo sapiens) for C[C@]12CC=C3C(CCC4=CC(=O)CC[C@@]43CCSCCS)C1CCC2=O (stereo partly specified) ?
a: < 6.00

q: Can you look up pIC50 on Aromatase (Homo sapiens) for CN(C)CC[C@]12CCC(=O)C=C1CCC1C2=CC[C@]2(C)C(=O)CCC12 (stereo partly specified) ?
a: < 5.00

* * *

Target Or Test System: Aromatase (Homo sapiens)
The following compounds are shown together with reported IC50 values.

q: Dear colleague, I am looking for the recorded IC50 of the following compound: C[C@]12CC=C3C(CCC4=CC(=O)CC[C@@]43CCOS(C)(=O)=O)C1CCC2=O (stereo not given in full)
a: > 10000 nM

q: Dear colleague, I am looking for the recorded IC50 of the following compound: C[C@]12CC=C3C(CCC4=CC(=O)CC[C@@]43CCSSc3ccccc3)C1CCC2=O (stereo not given in full)
a: > 1000 nM

q: Dear colleague, I am looking for the recorded IC50 of the following compound: CSC(C[C@]12CCC(=O)C=C1CCC1C2=CC[C@]2(C)C(=O)CCC12)SC (stereo not given in full)
a: > 1000 nM

q: Dear colleague, I am looking for the recorded IC50 of the following compound: C[C@]12CC=C3C(CCC4=CC(=O)CC[C@@]43CCSCCO)C1CCC2=O (stereo not given in full)
a: > 1000 nM

q: Dear colleague, I am looking for the recorded IC50 of the following compound: C[C@]12CC=C3C(CCC4=CC(=O)CC[C@@]43CCI)C1CCC2=O (stereo not given in full)
a: > 10000 nM
